B1: HDV Ribozyme (parent)
chain: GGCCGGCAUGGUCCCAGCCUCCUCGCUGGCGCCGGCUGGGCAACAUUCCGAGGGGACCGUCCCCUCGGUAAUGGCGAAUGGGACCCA

Variants of: B1
Protocol: self-cleavage, relative activity (ratio to wild type); higher = more cleavage; co-transcriptional
Measured Parameter: self-cleavage
API doc: respond with a numeric literal and nothing else, no unit.

Report self-cleavage for C3A A43C please.
0.0504

Next record, please: G1C A78G
0.0573

Another variant to look at: C36A G50U
0.0923

Another variant: A56C U79A
0.554

What do you have for G2A C22U ?
0.0183

U12G C49U ?
0.776

Next variant up: C22U C63A
0.697

Repeat for the following variant: U23A G67C
1.22

Consider next the variant G40A A45C in the same way.
0.671

Now this one: C30U A43C
0.158

Request: U47A G76C
0.812

Please answer likewise for C33U U37G
0.0462

And then G6U C33U , what is it?
0.217

Moving on to the next variant: G52C A71C
0.332

Another variant to look at: A83U A87C
0.751

Another variant to check: C21U C26U
0.646

# repeat for U9A U20A
0.185

Also U9C C21A , if possible.
0.0639

And what about the variant C66U C86A ?
0.905

Let us now turn to C4G C33A
0

For A71C G74A then?
0.453

Also A43U A78C , if possible.
0.0817
